# Test system: normotensive rats
# Experiment Notes: Blood pressure and heart rate in the conscious normotensive rat (NR)
# Assay type: in vivo
# Experimental Context: 5 mg/kg os, 360'
# Protocol: Blood pressure recordings have been made in conscious normotensive unrestrained rats weighing approximately 300 g, via a catheter chronically inserted into the left common carotid artery. Implantation of arterial cannula was made under sodium pentobarbital anesthesia (50 mg/kp i.p.) A 1 cm long incision was made through the previously shaved ventral surface of the neck and the tissues overlying the trachea parted by blunt dissection to reveal the carotid artery. […]
Listing of recorded Change in Blood Pressure after Treatment, 360' by entry.
// units = mm Hg; emit number, no label

Completed entries (count: 3):
>  <Compound>
CN1C[C@H](CC(C#N)C(=O)NCc2ccccc2)C[C@@H]2c3cccc4[nH]cc(c34)C[C@H]21 (stereo partly drawn) [Example 1131]

>  <Result Unit>
mm Hg

>  <Experimental Value>
-10

$$$$
>  <Compound>
CN1C[C@H](CC(C#N)C(N)=O)C[C@@H]2c3cccc4[nH]c(Br)c(c34)C[C@H]21 (stereo partly drawn) [Example 1139]

>  <Result Unit>
mm Hg

>  <Experimental Value>
0

$$$$
>  <Compound>
CN1C[C@H](CC(C#N)C(=O)N2CCCC2)C[C@@H]2c3cccc4[nH]cc(c34)C[C@H]21 (stereo partly drawn) [Example 1133]

>  <Result Unit>
mm Hg

>  <Experimental Value>
0

$$$$

Item CN1C[C@H](CC(C#N)C(N)=O)C[C@@H]2c3cccc4[nH]cc(c34)C[C@H]21 (stereo partly drawn) [355/1057] ; assay system normotensive rats; Change in Blood Pressure after Treatment, 360' reported as -20

Item CCNC(=O)C(C#N)C[C@@H]1C[C@@H]2c3cccc4[nH]cc(c34)C[C@H]2N(C)C1 (stereo partly drawn) [Example 1138] ; assay system normotensive rats; Change in Blood Pressure after Treatment, 360' reported as 0

Item NNc1nncc2ccccc12 [Hydralazine, hydralazine, reference compound] ; assay system normotensive rats; Change in Blood Pressure after Treatment, 360' reported as -7

* * *

# Tested on: spontaneously hypertensive male rats, strain MHS
# Experiment Notes: Anti-hypertensive activity in the spontaneously hypertensive rat (MHS): blood pressure and heart rate at the tail
# Assay type: in vivo
# Experimental Context: 5 mg/kg os, fourth day, 1 hr after dose
# Method: 1. Spontaneously Hypertensive Rat (MHS) Four spontaneously hypertensive male rats, strain MHS, weight 250 to 300 g for each group were used. The animals were treated for four consecutive days. […]
Given measured Change in BP, 1 hr after dose, fourth day, output 1 if it is greater than or equal to -30 mm Hg and 0 if not.

For orientation, consider the following solved cases.
>  <Molecule>
CCNC(=O)C(C#N)C[C@@H]1C[C@@H]2c3cccc4[nH]cc(c34)C[C@H]2N(C)C1 (some centres unmarked)

>  <Class>
1

$$$$
>  <Molecule>
NNc1nncc2ccccc12 [Hydralazine, hydralazine, reference compound]

>  <Class>
1

$$$$
>  <Molecule>
C=CCN1C[C@H](CC(C#N)C(=O)NCC)C[C@@H]2c3cccc4[nH]cc(c34)C[C@H]21 (some centres unmarked)

>  <Class>
1

$$$$

Task: Hello, I need to know if CN1C[C@H](CC(C#N)C(N)=O)C[C@@H]2c3cccc4[nH]cc(c34)C[C@H]21 (some centres unmarked) has measured Change in BP, 1 hr after dose, fourth day not below -30 mm Hg. Thanks!
Output: 0

Task: Hello, I need to know if CC(C)N1C[C@H](CC(C#N)C(N)=O)C[C@@H]2c3cccc4[nH]cc(c34)C[C@H]21 (some centres unmarked) has measured Change in BP, 1 hr after dose, fourth day not below -30 mm Hg. Thanks!
Output: 0

Task: Hello, I need to know if CCNC(=O)C(C#N)C[C@@H]1C[C@@H]2c3cccc4[nH]cc(c34)C[C@H]2N(C(C)C)C1 (some centres unmarked) has measured Change in BP, 1 hr after dose, fourth day not below -30 mm Hg. Thanks!
Output: 0

Task: Hello, I need to know if CN1C[C@H](CC(C#N)C(=O)N2CCCC2)C[C@@H]2c3cccc4[nH]cc(c34)C[C@H]21 (some centres unmarked) has measured Change in BP, 1 hr after dose, fourth day not below -30 mm Hg. Thanks!
Output: 0

Task: Hello, I need to know if N#CC(CC1CC2c3cccc4[nH]cc(c34)CC2N(CC2CC2)C1)C(N)=O (centres unmarked) has measured Change in BP, 1 hr after dose, fourth day not below -30 mm Hg. Thanks!
Output: 1
